System: BT-549
Assay: NCI tumour cell line growth inhibition, 48 h
The source made the active and inactive calls. Rule as the data show it: active = GI50 up to about 1.1 µM and inactive = higher.
The entries below are paired with their reported GI50.
ENDPOINT LABEL: GI50

>>> reported_measurement("CC(=O)OCCOCn1cnc2c(Cl)nc(Cl)nc21")
"18.7 µM (inactive)"
>>> reported_measurement("NCC(=O)N[C@H]1c2ccsc2/C(=N/O)[C@H]1O")
"> 100 µM (inactive)"
>>> reported_measurement("COc1ccc(C(SCCO)(c2ccccc2)c2ccc(OC)cc2)cc1")
"19.5 µM (inactive)"
>>> reported_measurement("Cc1ccc(C(=O)C2C=C(c3ccc(C)cc3)SC3C=CCC32)cc1 (stereo not given)")
"18.3 µM (inactive)"
>>> reported_measurement("OC1(C(O)(c2ccc(-c3ccccc3)cc2)c2ccc(-c3ccccc3)cc2)CCCCC1")
"> 100 µM (inactive)"
>>> reported_measurement("Cc1cc(C)c(/C=C2\\C(=O)Nc3ccccc32)[nH]1")
"> 100 µM (inactive)"
>>> reported_measurement("COc1cc(C(=O)C2CC3(CCC2(O)c2cc(OC)c(OC)c(OC)c2)CC(=O)Nc2ccccc2C3=O)cc(OC)c1OC (stereo not given)")
"> 100 µM (inactive)"
>>> reported_measurement("COc1ccc2c(=O)oc3c(OC)cc(CCN(C)C)c4c(=O)oc1c2c34")
"7.74 µM (inactive)"
>>> reported_measurement("CCCNC(=O)OCc1c(COC(=O)NCCC)c(-c2ccc(Cl)c(Cl)c2)n2c1CCC2")
"4.07 µM (inactive)"
>>> reported_measurement("OCCN1c2ccccc2Sc2ccccc21")
"> 10 µM (inactive)"

----------
Test system: COLO 205
Test: NCI tumour cell line growth inhibition, 48 h
The source made the active and inactive calls. Cut-off read from the data, not from the text of the source: active = GI50 up to about 1.1 µM and inactive = higher.
Catalogue of GI50 readings, one per entry.
ENDPOINT LABEL: GI50

>>> reported_measurement("CC1c2cc(c3c(c2O)CN([C@@H](C)C2CCCCC2)CO3)C(C)c2cc(c3c(c2O)CN([C@@H](C)C2CCCCC2)CO3)C(C)c2cc(c3c(c2O)CN([C@@H](C)C2CCCCC2)CO3)C(C)c2cc1c1c(c2O)CN([C@@H](C)C2CCCCC2)CO1 (some centres undefined)")
"1.36 µM (inactive)"
>>> reported_measurement("O=C1c2ccccc2-n2nnnc2C2CSCN12 (centres undefined)")
"> 100 µM (inactive)"
>>> reported_measurement("CCOC(=O)CSC(=O)NCCCl")
"> 100 µM (inactive)"
>>> reported_measurement("C#C[C@]1(O)CC[C@H]2[C@@H]3CCC4=C/C(=N/OCCN(C)C)CC[C@]4(C)[C@H]3CC[C@@]21C")
"26.7 µM (inactive)"

----------
System: SF-295
Experiment: NCI tumour cell line growth inhibition, 48 h
Active and inactive are the calls of the source. No stated cut-off is given here; in the data, active = GI50 up to about 1.1 µM and inactive = higher.
ENDPOINT LABEL: GI50

>>> reported_measurement("O=C1c2ccccc2-n2nnnc2C2CSCN12 (stereo not given)")
"> 100 µM (inactive)"
>>> reported_measurement("CS(=O)(=O)OCCCNCCCOS(C)(=O)=O")
"526 µM (inactive)"
>>> reported_measurement("CCCCCCCCCCCCCCCCOCC(Cl)COP(=O)(O)OP(=O)(O)OCC1OC(n2cnc3c(N)ncnc32)C(O)C1O (stereo not given)")
"> 100 µM (inactive)"
>>> reported_measurement("COC(=O)C1=Cc2c(OC)cc(OC)c(OC)c2[C@H](c2cc(OC)c(OC)cc2OC)C1C(=O)OC (stereo not given in full)")
"88.5 µM (inactive)"
>>> reported_measurement("CN(C)CC1(C)CC/C(=C\\c2ccccc2)C1=O (stereo not given)")
"> 100 µM (inactive)"
